All figures here come from ChEMBL document CHEMBL1909628.

- assay_procedure: Toxicity in zebrafish assessed as organism survival at 5 uM treated at 48 hrs post-fertilization measured after 3 days
- Assay type: organism-based, Danio rerio
- measurement_parameters: in vivo

| substance_smiles | survival at 72 h, 5 µM (%) |
| --- | --- |
| Cc1ccc(NC(=O)C(=O)c2c[nH]c3cccc(C)c23)cc1 | 100 |
| O=C(Nc1ccc(N2CCOCC2)cc1)C(=O)c1c[nH]c2c(Cl)cccc12 | 100 |
| Cn1cc(C(=O)C(=O)Nc2ccc(-n3cccc3)cc2)c2ccc(Cl)cc21 | 100 |
| COc1ccc(NC(=O)C(=O)c2c[nH]c3cccc(C)c23)cc1 | 100 |
| Cc1cccc2c(C(=O)C(=O)Nc3ccc(N4CCOCC4)cc3)c[nH]c12 | 100 |
| O=C(Nc1ccc(-n2cccn2)cc1)C(=O)c1c[nH]c2cc(Cl)ccc12 | 100 |
| Cc1ccc(NC(=O)C(=O)c2c[nH]c3c(Cl)cccc23)cc1 | 100 |
| Cn1cc(C(=O)C(=O)Nc2ccc(-n3cccc3)cc2)c2ccccc21 | 100 |
| COc1ccc(NC(=O)C(=O)c2c[nH]c3cc(C#N)ccc23)cc1 | 100 |
| COc1ccc(NC(=O)C(=O)c2c[nH]c3ccccc23)cc1 | 100 |
| Cc1ccc(NC(=O)C(=O)c2c[nH]c3cc(Cl)ccc23)cc1 | 100 |
| Cc1ccc2c(C(=O)C(=O)Nc3ccccc3)c[nH]c2c1 | 100 |
| Cc1ccc(NC(=O)C(=O)c2c[nH]c3cc([N+](=O)[O-])ccc23)cc1 | 100 |
| Cc1ccc2[nH]cc(C(=O)C(=O)Nc3ccccc3)c2c1 | 100 |
| COc1ccc(NC(=O)C(=O)c2c[nH]c3ccc(C)cc23)cc1 | 100 |
| COc1ccc(NC(=O)C(=O)c2c[nH]c3cc(C(C)C)ccc23)cc1 | 100 |
| COc1ccc(NC(=O)C(=O)c2c[nH]c3c(C)cccc23)cc1 | 100 |
| O=C(Nc1ccc(-n2cccc2)cc1)C(=O)c1c[nH]c2cc(F)ccc12 | 100 |
| Cc1ccc2c(C(=O)C(=O)Nc3ccc(N4CCOCC4)cc3)c[nH]c2c1 | 100 |
| Cc1ccc(NC(=O)C(=O)c2c[nH]c3cc(C)ccc23)cc1 | 100 |
| Cc1ccc(NC(=O)C(=O)c2c[nH]c3cc(C#N)ccc23)cc1 | 100 |
| COc1ccc(NC(=O)C(=O)c2c[nH]c3cc(F)ccc23)cc1 | 100 |

###

- assay_procedure: Toxicity in zebrafish assessed as organism survival at 5 uM treated at 48 hrs post-fertilization measured after 3 days
- Format: organism-based, Danio rerio
- measurement_parameters: in vivo
measurement_name: survival at 72 h, 5 µM

| substance_smiles | measurement_name | observed |
| --- | --- | --- |
| Cc1ccc(NC(=O)C(=O)c2c[nH]c3ccc(Cl)cc23)cc1 | survival at 72 h, 5 µM | 100% |
| O=C(Nc1ccccc1)C(=O)c1c[nH]c2cc(Cl)ccc12 | survival at 72 h, 5 µM | 100% |
| COc1ccc(NC(=O)C(=O)c2c[nH]c3cc(C)ccc23)cc1 | survival at 72 h, 5 µM | 100% |

###

Item-by-item account of EC50
- assay_procedure: Antiprion activity against PrPsc infected in mouse ScN2a cells assessed as complete clearance of PrPSc after 5 days by ELISA
- Format: cell-based
- measurement_parameters: 120 h

| substance_smiles | EC50 [nM] |
| --- | --- |
| COc1ccc(NC(=O)C(=O)c2c[nH]c3cc(C#N)ccc23)cc1 | 11 |
| Cc1ccc(NC(=O)C(=O)c2c[nH]c3c(Cl)cccc23)cc1 | 1260 |
| O=C(Nc1ccc(-n2cccn2)cc1)C(=O)c1c[nH]c2ccccc12 | 14 |
| O=C(Nc1ccc(-n2ccnc2)cc1)C(=O)c1c[nH]c2ccccc12 | 16 |
| COc1ccc(NC(=O)C(=O)c2c[nH]c3ccccc23)cc1 | 91 |
| O=C(Nc1ccc(-n2cccn2)cc1)C(=O)c1c[nH]c2cc(Cl)ccc12 | 175 |
| Cc1ccc(NC(=O)C(=O)c2c[nH]c3ccccc23)cc1 | 206 |
| O=C(Nc1ccc(N2CCOCC2)cc1)C(=O)c1c[nH]c2ccccc12 | 65 |
| Cc1ccc(NC(=O)C(=O)c2c[nH]c3cc(C#N)ccc23)cc1 | 26 |
| COc1ccc(NC(=O)C(=O)c2c[nH]c3c(Cl)cccc23)cc1 | 247 |
